# pIC50 per entry
# target of assay: Acetylcholinesterase (Homo sapiens, UniProt P22303)
# Sequence (P22303 whole entry): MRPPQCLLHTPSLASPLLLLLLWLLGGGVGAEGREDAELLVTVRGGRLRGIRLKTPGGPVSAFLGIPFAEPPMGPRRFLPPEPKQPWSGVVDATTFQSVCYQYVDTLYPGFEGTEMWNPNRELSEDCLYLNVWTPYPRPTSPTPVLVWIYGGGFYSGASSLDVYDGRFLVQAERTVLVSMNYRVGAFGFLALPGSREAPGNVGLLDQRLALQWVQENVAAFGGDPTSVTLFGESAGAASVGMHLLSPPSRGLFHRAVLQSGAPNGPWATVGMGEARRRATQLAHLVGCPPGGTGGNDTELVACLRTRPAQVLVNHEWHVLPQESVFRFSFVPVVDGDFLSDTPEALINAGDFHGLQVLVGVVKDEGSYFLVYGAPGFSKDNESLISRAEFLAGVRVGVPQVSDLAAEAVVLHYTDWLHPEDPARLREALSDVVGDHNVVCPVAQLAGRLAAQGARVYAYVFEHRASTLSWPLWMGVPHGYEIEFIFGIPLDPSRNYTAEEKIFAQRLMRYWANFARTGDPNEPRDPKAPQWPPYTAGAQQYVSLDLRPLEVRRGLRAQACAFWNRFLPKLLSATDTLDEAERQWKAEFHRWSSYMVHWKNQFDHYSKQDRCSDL
# assay: Inhibition of human recombinant AChE using ATCh as substrate preincubated for 20 mins followed by substrate addition and measured for 3 mins by Ellman method
Please express pIC50 as -log10 of the molar concentration.

O=C(Nc1cc(-c2cn(CCNc3c4c(nc5ccccc35)CCCC4)nn2)ccn1)Nc1cccc2c1[C@H]1CCCCN1C2=O; 8.02
CN(Cc1ccnc(NC(=O)Nc2cccc3c2C2CCCCN2C3=O)c1)Cc1cn(CCNc2c3c(nc4ccccc24)CCCC3)nn1 (racemic); 7.23
O=C(Nc1cc(CCc2cn(CCNc3c4c(nc5ccccc35)CCCC4)nn2)ccn1)Nc1cccc2c1C1CCCCN1C2=O (racemic); 7.63

Next compound, please.
**Query** Quick check: pIC50 on Acetylcholinesterase (Homo sapiens, UniProt P22303), item `O=C(Nc1cc(-c2cn(CCNc3c4c(nc5ccccc35)CCCC4)nn2)ccn1)Nc1cccc2c1[C@@H]1CCCCN1C2=O` ?
**Result** 7.86

* * *

# target of assay: Glycogen synthase kinase-3 (Sus scrofa, UniProt B2LUN4+I6LNT8)
Decision: IC50 beneath 20 nM gives y; IC50 meeting or exceeding 20 nM gives n.

O=C(Nc1cc(COCc2cn(CCNc3c4c(nc5ccccc35)CCCC4)nn2)ccn1)Nc1cccc2c1C1CCCCN1C2=O (racemic); y
O=C(Nc1ccc(-c2cn(CCNc3c4c(nc5ccccc35)CCCC4)nn2)cn1)Nc1cccc2c1C1CCCCN1C2=O (racemic); n

**Query** Could you please tell me whether IC50 recorded for `C#Cc1ccnc(NC(=O)Nc2cccc3c2[C@H]2CCCCN2C3=O)c1` is less than 20 nM?
**Result** n

**Query** Now consider C#CCOCc1ccnc(NC(=O)Nc2cccc3c2C2CCCCN2C3=O)c1 (racemic) .
**Result** n

**Query** Now consider C#Cc1ccc(NC(=O)Nc2cccc3c2C2CCCCN2C3=O)nc1 (racemic) .
**Result** n

**Query** Now consider O=C(Nc1cc(COCc2cn(CCNc3ccncc3)nn2)ccn1)Nc1cccc2c1C1CCCCN1C2=O (racemic) .
**Result** n

**Query** Now consider C#Cc1ccnc(NC(=O)Nc2cccc3c2C2CCCCN2C3=O)c1 (racemic) .
**Result** n

**Query** Now consider O=C(Nc1cc(COCc2cn(CCCc3ccccc3)nn2)ccn1)Nc1cccc2c1C1CCCCN1C2=O (racemic) .
**Result** y

**Query** Now consider Cn1cc(COCc2ccnc(NC(=O)Nc3cccc4c3C3CCCCN3C4=O)c2)nn1 (racemic) .
**Result** n

**Query** Now consider O=C(Nc1cc(-c2cn(CCNc3c4c(nc5ccccc35)CCCC4)nn2)ccn1)Nc1cccc2c1C1CCCCN1C2=O (racemic) .
**Result** y

**Query** Now consider C#CCCc1ccnc(NC(=O)Nc2cccc3c2C2CCCCN2C3=O)c1 (racemic) .
**Result** y

**Query** Now consider `O=C(Nc1cc(-c2cn(CCNc3c4c(nc5ccccc35)CCCC4)nn2)ccn1)Nc1cccc2c1[C@@H]1CCCCN1C2=O` .
**Result** y

**Query** Now consider `O=C(Nc1cc(-c2cn(CCNc3c4c(nc5ccccc35)CCCC4)nn2)ccn1)Nc1cccc2c1[C@H]1CCCCN1C2=O` .
**Result** y

**Query** Now consider CN(Cc1ccnc(NC(=O)Nc2cccc3c2C2CCCCN2C3=O)c1)Cc1cn(CCNc2c3c(nc4ccccc24)CCCC3)nn1 (racemic) .
**Result** y

**Query** Now consider O=C(Nc1cc(CCc2cn(CCNc3c4c(nc5ccccc35)CCCC4)nn2)ccn1)Nc1cccc2c1C1CCCCN1C2=O (racemic) .
**Result** n

**Query** Now consider C#Cc1cccc(NC(=O)Nc2cccc3c2C2CCCCN2C3=O)n1 (racemic) .
**Result** n
